subject of test: human GPR119 (Homo sapiens (Human))
Sequence (Q8TDV5 whole entry): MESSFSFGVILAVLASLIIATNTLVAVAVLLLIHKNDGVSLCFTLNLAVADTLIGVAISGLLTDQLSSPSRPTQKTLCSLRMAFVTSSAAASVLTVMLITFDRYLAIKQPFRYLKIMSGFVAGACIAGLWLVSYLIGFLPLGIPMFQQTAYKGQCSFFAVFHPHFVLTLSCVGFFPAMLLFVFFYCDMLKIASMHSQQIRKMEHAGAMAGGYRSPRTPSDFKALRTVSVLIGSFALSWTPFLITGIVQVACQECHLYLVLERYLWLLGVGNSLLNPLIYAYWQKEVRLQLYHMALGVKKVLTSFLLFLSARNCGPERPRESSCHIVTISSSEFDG
procedure details: AlphaScreen cAMP assay in MIN6 cells stably transfected with human GPR119
details: Min-6/hGPR119 cells, 45 min incubation at room temperature
readout label: EC50 (nM)
# value in nM; strip the unit string

Please give the measured EC50 for this compound: CC(C)(C)OC(=O)N1CCC(N(C(=O)c2ccc(-c3cncs3)cc2)C2CC2)CC1 [Example 6]
32

Now this one: CC(C)(C)OC(=O)N1CC[C@H](N(C(=O)c2ccc(-c3cnco3)cc2)C2CC2)[C@@H](F)C1 (single isomer, unassigned) [Example 38]
174

Now this one: CC(C)(O)COC(=O)N1CCC(N(C(=O)c2ccc(-c3cnco3)cc2)C2CC2)CC1 [Example 15]
4460

Now this one: C=C(C)OC(=O)N1CCC(N(C(=O)c2ccc(-c3cnco3)cc2)C2CC2)CC1 [Example 3]
124

Now this one: Cn1cncc1-c1ccc(C(=O)N(C2CC2)C2CCN(C(=O)OC(C)(C)C)CC2)cc1 [Example 42]
152

Now this one: CC(C)(C)OC(=O)N1CCC(N(C(=O)c2ccc(-c3nnco3)cc2)C2CC2)CC1 [Example 62]
650

Now this one: CC(C)(C)OC(=O)N1CCC(N(C(=O)c2ccc(-c3ccsc3)cc2)C2CC2)CC1 [Example 80]
345

Now this one: CCOc1ccc(-c2ccc(C(=O)N(C3CC3)C3CCN(C(=O)OC(C)(C)C)CC3)cc2)cc1 [Example 87]
256

Now this one: CC(C)(C)OC(=O)N1CCC(N(C(=O)c2ccc(-c3ccc(OC(F)(F)F)cc3)cc2)C2CC2)CC1 [Example 88]
203

Now this one: CC(C)(C)OC(=O)N1CCC(N(C(=O)c2ccc(-c3cn[nH]c3)cc2)C2CC2)CC1 [Example 12]
240

Now this one: CCOc1ccc(-c2ccc(C(=O)N(C3CC3)C3CCN(C(=O)OC(C)(C)C)CC3)cc2)cn1 [Example 109]
316

Now this one: C[C@@H]1CN(C(=O)OC(C)(C)C)CC[C@@H]1N(C(=O)c1ccc(-c2cnco2)cc1)C1CC1 (single isomer, unassigned) [Example 46]
7

Now this one: Cc1nc(-c2ccc(C(=O)N(C3CC3)C3CCN(C(=O)OC(C)(C)C)CC3)cc2)co1 [Example 5]
884

Now this one: CC(C)COC(=O)N1CCC(N(C(=O)c2ccc(-c3cnco3)cc2)C2CC2)CC1 [Example 125]
45

Now this one: CC(C)(C)OC(=O)N1CCC(N(C(=O)c2ccc(-n3cncn3)cc2)C2CC2)CC1 [Example 63]
127

---

subject of test: human GPR119 (Homo sapiens (Human))
procedure details: AlphaScreen cAMP assay in MIN6 cells stably transfected with human GPR119
details: Min-6/hGPR119 cells, 45 min incubation at room temperature
Assign EC50 to each entry below.
Dear colleague, please send the value followed by its unit.

Please give the measured EC50 for this compound: CC(C)(C)OC(=O)N1CCC(N(C(=O)c2ccc(-c3ccccc3C#N)cc2)C2CC2)CC1
317 nM

Now this one: COc1cc(C(=O)N(C2CC2)C2CCN(C(=O)OC(C)(C)C)CC2)ccc1-c1cnco1
650 nM

Now this one: Cc1nnnn1-c1ccc(C(=O)N(C2CC2)C2CCN(C(=O)OC(C)(C)C)CC2)cc1
224 nM

Now this one: CNS(=O)(=O)c1ccc(-c2ccc(C(=O)N(C3CC3)C3CCN(C(=O)OC(C)(C)C)CC3)cc2)cc1
111 nM

// provenance: patent US9469631B2
